- ASSAY SYSTEM: UniProtKB P28646
MEASURE NAME: pKd
Would you please state pKd, meaning minus log10 of the concentration in mol/L, as a bare number?

See these solved cases before continuing.
[[record]]
item_smiles = "CN1C[C@H](C(=O)N2CCN(c3ccc(Cl)cc3)CC2)C[C@@H]2c3cccc4[nH]c(Br)c(c34)C[C@H]21"
measure_name = "pKd"
value_reported = 8.26

[[record]]
item_smiles = "COCCN1C[C@H](C(=O)N2CCN(c3ccccn3)CC2)C[C@@H]2c3cccc4[nH]c(Br)c(c34)C[C@H]21"
measure_name = "pKd"
value_reported = 5.83

[[record]]
item_smiles = "CN1C[C@H](C(=O)N2CCN(c3ccc(Cl)cc3)CC2)C[C@@H]2c3cccc4[nH]c(Cl)c(c34)C[C@H]21"
measure_name = "pKd"
value_reported = 8.38


Please find the next compound below.
Specify measured pKd for "CN1C[C@H](C(=O)N2CCN(c3ccc4nsnc4n3)CC2)C[C@@H]2c3cccc4[nH]c(Br)c(c34)C[C@H]21" .
9.43

###

- PROCEDURE DETAILS: Ratio of drug level in brain to plasma in rat at 30 umol/kg after 10 mins
- Assay type: ADME
- APPLIED CONDITIONS: brain and plasma
MEASURE NAME: Kp at 10 min

Provide only the value of recorded Kp at 10 min for "CN1C[C@H](C(=O)N2CCN(c3ccc4nonc4c3)CC2)C[C@@H]2c3cccc4[nH]c(Br)c(c34)C[C@H]21"
0.7

###

Heads up, these compounds all have pKd values measured for Somatostatin receptor type 2 (Rattus norvegicus).
pKd field: float, defined as -log10 of concentration (mol/L).

[[record]]
item_smiles = "CN1C[C@H](C(=O)N2CCN(c3ccc4nonc4c3)CC2)C[C@@H]2c3cccc4[nH]c(Cl)c(c34)C[C@H]21"
value_reported = 5.29

[[record]]
item_smiles = "CN1C[C@H](C(=O)N2CCN(c3ccc([N+](=O)[O-])cc3)CC2)C[C@@H]2c3cccc4[nH]c(Br)c(c34)C[C@H]21"
value_reported = 5.14

[[record]]
item_smiles = "CCn1c(N2CCN(C(=O)[C@@H]3C[C@@H]4c5cccc6[nH]c(Br)c(c56)C[C@H]4N(C)C3)CC2)cccc1=O"
value_reported = 4.58

[[record]]
item_smiles = "CN1C[C@H](C(=O)N2CCN(c3ccc4nsnc4n3)CC2)C[C@@H]2c3cccc4[nH]cc(c34)C[C@H]21"
value_reported = 5.52


Look up and report measured pKd (Somatostatin receptor type 2 (Rattus norvegicus)) for the following compound: "CN1C[C@H](C(=O)N2CCN(c3cccc(=O)n3C)CC2)C[C@@H]2c3cccc4[nH]c(Cl)c(c34)C[C@H]21"
4.31

###

- PROCEDURE DETAILS: Ratio of drug level in brain to plasma in rat at 30 umol/kg after 24 hrs
- Type: ADME
- APPLIED CONDITIONS: brain and plasma
MEASURE NAME: Kp at 24 h
Lab note: write the figure by itself, no unit.

Input "CN1C[C@H](C(=O)N2CCN(c3ccc4nonc4c3)CC2)C[C@@H]2c3cccc4[nH]c(Br)c(c34)C[C@H]21" , output reported Kp at 24 h.
1.7

###

For reference, pKd measured on UniProt:P28646:
pKd here is simply -log10 of the concentration when that concentration is written in mol/L.

Example entries and their recorded answers appear below.
[[record]]
molecule = "CCn1c(N2CCN(C(=O)[C@@H]3C[C@@H]4c5cccc6[nH]c(Br)c(c56)C[C@H]4N(C)C3)CC2)cccc1=O"
assay_system = "UniProt:P28646"
value_reported = 9.55

[[record]]
molecule = "CN1C[C@H](C(=O)N2CCN(c3ccc([N+](=O)[O-])cc3)CC2)C[C@@H]2c3cccc4[nH]c(Br)c(c34)C[C@H]21"
assay_system = "UniProt:P28646"
value_reported = 8.87

[[record]]
molecule = "CC(C)CCN1C[C@H](C(=O)N2CCN(c3ccccn3)CC2)C[C@@H]2c3cccc4[nH]c(Br)c(c34)C[C@H]21"
assay_system = "UniProt:P28646"
value_reported = 5.76

[[record]]
molecule = "CN1C[C@H](C(=O)N2CCN(c3ccc([N+](=O)[O-])cc3)CC2)C[C@@H]2c3cccc4[nH]c(Cl)c(c34)C[C@H]21"
assay_system = "UniProt:P28646"
value_reported = 8.90

[[record]]
molecule = "CN1C[C@H](C(=O)N2CCN(c3cccc(=O)n3C)CC2)C[C@@H]2c3cccc4[nH]cc(c34)C[C@H]21"
assay_system = "UniProt:P28646"
value_reported = 9.12


// fetch pKd given entry "CSc1[nH]c2cccc3c2c1C[C@@H]1[C@@H]3C[C@@H](C(=O)N2CCN(c3ccccn3)CC2)CN1C"
8.62

Name the recorded pKd of the item "CCCCN1C[C@H](C(=O)N2CCN(c3ccccn3)CC2)C[C@@H]2c3cccc4[nH]c(Br)c(c34)C[C@H]21" in your answer.
5.94

Please give measured pKd of the following entry: "CN1C[C@H](C(=O)N2CCN(c3ccccn3)CC2)C[C@@H]2c3cccc4[nH]c(I)c(c34)C[C@H]21"
7.78

Quick one: give measured pKd for "O=C([C@H]1CN[C@@H]2Cc3c(Br)[nH]c4cccc(c34)[C@H]2C1)N1CCN(c2ccccn2)CC1"
6.77

Answer with the recorded pKd of CN1C[C@H](C(=O)N2CCN(c3ccccn3)CC2)C[C@@H]2c3cccc4[nH]c([S+](C)[O-])c(c34)C[C@H]21 (stereo not given in full) only.
5.58

Return reported pKd. Input molecule: "CN1C[C@H](C(=O)N2CCN(c3ccc4nsnc4n3)CC2)C[C@@H]2c3cccc4[nH]cc(c34)C[C@H]21"
8.99

Give pKd for "CN1C[C@H](C(=O)N2CCN(c3ccc([N+](=O)[O-])cc3)CC2)C[C@@H]2c3cccc4[nH]cc(c34)C[C@H]21"
8.41

Supply measured pKd of "CN1C[C@H](C(=O)N2CCN(c3ccccn3)CC2)C[C@@H]2c3cccc4[nH]c(Cl)c(c34)C[C@H]21" in your reply.
7.89

Specify reported pKd for the molecule shown: "CCN1C[C@H](C(=O)N2CCN(c3ccc(F)c(F)c3)CC2)C[C@@H]2c3cccc4[nH]c(Br)c(c34)C[C@H]21"
9.01

Identify pKd associated with the molecule "CN1C[C@H](C(=O)N2CCN(c3ccc4nonc4c3)CC2)C[C@@H]2c3cccc4[nH]c(Br)c(c34)C[C@H]21"
9.43

###

- ASSAY SYSTEM: 5-hydroxytryptamine receptor 1A (Homo sapiens, UniProt P08908)
- Sequence (P08908 whole entry): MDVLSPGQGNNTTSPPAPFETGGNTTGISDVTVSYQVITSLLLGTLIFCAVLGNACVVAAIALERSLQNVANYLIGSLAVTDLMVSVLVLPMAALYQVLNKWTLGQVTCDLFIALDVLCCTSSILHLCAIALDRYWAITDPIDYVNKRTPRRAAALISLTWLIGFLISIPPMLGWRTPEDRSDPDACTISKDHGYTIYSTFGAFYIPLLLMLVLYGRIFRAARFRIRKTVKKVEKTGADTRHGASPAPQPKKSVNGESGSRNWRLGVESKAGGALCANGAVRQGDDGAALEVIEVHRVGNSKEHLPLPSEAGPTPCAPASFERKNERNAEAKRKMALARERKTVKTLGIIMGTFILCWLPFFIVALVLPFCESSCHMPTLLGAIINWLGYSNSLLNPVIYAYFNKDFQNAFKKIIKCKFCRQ
MEASURE NAME: Kd
Hi, when you answer, please include the unit after the number. Thanks!

# return Kd for "CN1C[C@H](C(=O)N2CCN(c3ccc4nonc4c3)CC2)C[C@@H]2c3cccc4[nH]c(Br)c(c34)C[C@H]21" , test system: 5-hydroxytryptamine receptor 1A (Homo sapiens, UniProt P08908)
28.2 nM

###

Heads up, these compounds all have log10 of Kd values measured for Somatostatin receptor type 1 (Rattus norvegicus, UniProt P28646).
Please interpret these as log10 of Kd where Kd is in nM.

Study these solved cases before continuing.
[[record]]
item_smiles = "CN1C[C@H](C(=O)N2CCN(c3ccc(Cl)cc3)CC2)C[C@@H]2c3cccc4[nH]cc(c34)C[C@H]21"
measure_name = "log10 of Kd"
value_reported = 1.29

[[record]]
item_smiles = "CN1C[C@H](C(=O)N2CCN(c3ccc(F)c(F)c3)CC2)C[C@@H]2c3cccc4[nH]c(Br)c(c34)C[C@H]21"
measure_name = "log10 of Kd"
value_reported = -0.31

[[record]]
item_smiles = "CN1C[C@H](C(=O)N2CCN(c3ccc4nsnc4n3)CC2)C[C@@H]2c3cccc4[nH]c(Cl)c(c34)C[C@H]21"
measure_name = "log10 of Kd"
value_reported = -0.62


Output measured log10 of Kd for this item: "O=C([C@@H]1C[C@@H]2c3cccc4[nH]c(Br)c(c34)C[C@H]2N(CCCO)C1)N1CCN(c2ccccn2)CC1"
3.37

Dear colleague, please send me the reported log10 of Kd for "CN1C[C@H](C(=O)N2CCN(c3ccccn3)CC2)C[C@@H]2c3cccc4[nH]c(O)c(c34)C[C@H]21" when you can.
2.38

Look up log10 of Kd of "CN1C[C@H](C(=O)N2CCN(c3ccccn3)CC2)C[C@@H]2c3cccc4[nH]c(S(C)(=O)=O)c(c34)C[C@H]21" and report it.
2.49

Using known records, supply log10 of Kd for "CCn1c(N2CCN(C(=O)[C@@H]3C[C@@H]4c5cccc6[nH]c(Cl)c(c56)C[C@H]4N(C)C3)CC2)cccc1=O"
-0.42
